# assayTarget: T1, human DLL3 antigen protein (Kactus Biosystems, Cat. No. DLL-HM103) (human, UniProt Q9NYJ7 27-492)
# T1 sequence: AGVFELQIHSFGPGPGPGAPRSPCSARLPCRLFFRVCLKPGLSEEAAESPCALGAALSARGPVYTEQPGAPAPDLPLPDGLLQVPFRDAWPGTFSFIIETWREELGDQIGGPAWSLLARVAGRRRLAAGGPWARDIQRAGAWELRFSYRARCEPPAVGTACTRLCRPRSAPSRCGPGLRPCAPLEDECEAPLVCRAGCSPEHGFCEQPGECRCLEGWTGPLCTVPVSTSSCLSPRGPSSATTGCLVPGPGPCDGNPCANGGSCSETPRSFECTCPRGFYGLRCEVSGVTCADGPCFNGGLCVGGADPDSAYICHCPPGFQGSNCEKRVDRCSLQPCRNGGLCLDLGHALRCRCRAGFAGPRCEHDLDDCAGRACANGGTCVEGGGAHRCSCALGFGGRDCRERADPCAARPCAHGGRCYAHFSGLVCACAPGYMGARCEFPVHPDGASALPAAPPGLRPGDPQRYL
# assayComment: affinity assay with human DLL3 antigen protein (kinetics; method not restated, Biacore as in Example 18 implied)
attributeMeasured: kon (M⁻¹ s⁻¹)
Form entry: value (M⁻¹ s⁻¹) — number only.

Item under review: H2-39E2D11-NA humanized antibody variant (antibody, V domains shown, Variant of H2-39E2D11; Its constant regions are not restated) VH: QVQLVQSGAEVKKPGASVKVSCKASGYTFISYWITWVRQAPGQGLEWMGDIYPGSGSTTNYNEKFKSRVTMTRDTSTSTVYMELSSLRSEDTAVYYCARETTVGGAYAMDYWGQGTLVTVSS VL: EIVLTQSPATLSLSPGERATLSCRASQSINNNLHWYQQKPGQAPRLLIKYVSQSISGIPARFSGSGSGTDFTLTISSLEPEDFAVYYCQQTNAWPLTFGGGTKLEIK . Reported kon?
247000

Item under review: H2-39E2D11 mouse hybridoma-derived humanized anti-DLL3 antibody (antibody, V domains shown) VH: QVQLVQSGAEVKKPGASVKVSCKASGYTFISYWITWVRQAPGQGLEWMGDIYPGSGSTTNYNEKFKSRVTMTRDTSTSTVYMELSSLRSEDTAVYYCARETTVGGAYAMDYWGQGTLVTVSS VL: EIVLTQSPATLSLSPGERATLSCRASQSINNNLHWYQQKPGQAPRLLIKYVSQSISGIPARFSGSGSGTDFTLTISSLEPEDFAVYYCQQTNSWPLTFGGGTKLEIK . Reported kon?
181000

Item under review: H2-39E2D11-AS humanized antibody variant (antibody, V domains shown, Variant of H2-39E2D11; Its constant regions are not restated) VH: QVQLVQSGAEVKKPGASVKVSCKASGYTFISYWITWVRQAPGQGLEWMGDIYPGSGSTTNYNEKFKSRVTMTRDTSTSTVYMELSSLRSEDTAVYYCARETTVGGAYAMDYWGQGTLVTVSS VL: EIVLTQSPATLSLSPGERATLSCRASQSINNNLHWYQQKPGQAPRLLIKYVSQSISGIPARFSGSGSGTDFTLTISSLEPEDFAVYYCQQTASWPLTFGGGTKLEIK . Reported kon?
206000

Field: next binder
Item under review: H2-39E2D11-QS humanized antibody variant (antibody, V domains shown, Variant of H2-39E2D11; Its constant regions are not restated) VH: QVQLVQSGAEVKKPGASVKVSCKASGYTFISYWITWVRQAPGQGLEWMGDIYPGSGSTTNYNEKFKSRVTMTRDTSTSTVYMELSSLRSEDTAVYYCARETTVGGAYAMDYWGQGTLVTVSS VL: EIVLTQSPATLSLSPGERATLSCRASQSINNNLHWYQQKPGQAPRLLIKYVSQSISGIPARFSGSGSGTDFTLTISSLEPEDFAVYYCQQTQSWPLTFGGGTKLEIK . Reported kon?
171000

Data provenance is patent US20240239878A1.
